# Test system: ERK5;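 further: KINOMEscan kinase panel screen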
# Construct: gene MAPK7
# test parameters: concentration: 1 μM,replicates: in singlicate; n = 1
assay readout: %Inh (%)
Dear colleague, please return just the value in %, with no unit written.

1. O=C(Nc1ccccc1)c1cccc(Oc2ccc3nccn3n2)c1 = 0
2. C[C@@H]1CNc2c(sc3ccc4nc(-c5ccncc5)ccc4c23)C(=O)N1 = 15
3. c1ccc(Oc2ccc(Nc3ccnc4ccc(-c5ccccn5)cc34)cc2)cc1 = 0
4. COC(=O)c1cccc(NC(=O)NC2CCN(c3ccnc(NCc4ccc(F)cc4)n3)CC2)c1 = 22

Turning now to a further compound:
Ask: Consider the compound shown here: `NC(=O)Nc1sc(-c2ccc(F)cc2)cc1C(N)=O` What is its recorded %Inh?
Result: 10
